// data source = ChEMBL document CHEMBL1138634

- ASSAY_DETAILS: Inhibitory activity against carbonic anhydrase
Threshold -6: Log Ki strictly smaller gives satisfied, otherwise not satisfied.

Does the reported Log Ki of the following compound sit strictly below -6? "NS(=O)(=O)c1ccc(Cl)c([N+](=O)[O-])c1"
satisfied

Another compound to look at: "Cc1ccccc1S(N)(=O)=O"
not satisfied

Another compound to look at: NS(=O)(=O)c1ccccc1 [BENZENESULFONAMIDE]
not satisfied

Another compound to look at: NS(=O)(=O)c1ccc(Cl)cc1 [P-CHLOROBENZENESULFONAMIDE]
not satisfied

Another compound to look at: "Cc1cccc(S(N)(=O)=O)c1"
not satisfied

Another compound to look at: "NS(=O)(=O)c1ccc(Cl)c(Cl)c1"
satisfied

Another compound to look at: "CNc1ccc(S(N)(=O)=O)cc1"
not satisfied

Another compound to look at: "COc1ccc(S(N)(=O)=O)cc1"
not satisfied

Another compound to look at: "NS(=O)(=O)c1ccccc1[N+](=O)[O-]"
not satisfied

Another compound to look at: "NS(=O)(=O)c1ccccc1Cl"
not satisfied

Another compound to look at: "NS(=O)(=O)c1cccc(Cl)c1"
not satisfied

Another compound to look at: "NS(=O)(=O)c1ccc([N+](=O)[O-])c(C(F)(F)F)c1"
satisfied

Another compound to look at: Cc1ccc(S(N)(=O)=O)cc1 [P-TOLUENESULFONAMIDE]
not satisfied

###

- ASSAY_DETAILS: Inhibitory activity against carbonic anhydrase
Field: Log Ki. Provide a value for each of the molecules that follow.

Dear colleague, I am looking for the recorded Log Ki of the following molecule: "NS(=O)(=O)c1ccc(Br)cc1"
-5.92

Another molecule to look at: "CC(=O)c1ccc(S(N)(=O)=O)cc1"
-5.95

Another molecule to look at: "N#Cc1ccc(S(N)(=O)=O)cc1"
-5.95

Another molecule to look at: "NS(=O)(=O)c1cccc([N+](=O)[O-])c1"
-5.88
